Observation Type: pIC50
Please report pIC50 as the negative decimal logarithm of the molar concentration, giving only the number.

Entry C[C@@H](CN1CCC2(CC1)C(=O)NCN2c1ccc(F)c(F)c1)NC(=O)c1ccc2ccccc2c1.O=C(O)C(F)(F)F [24a] : pIC50 on PLD2 (Homo sapiens) = 6.92

###

Target Of Assay: PLD1 (Homo sapiens, UniProt Q13393)
Sequence (Q13393 1-1074): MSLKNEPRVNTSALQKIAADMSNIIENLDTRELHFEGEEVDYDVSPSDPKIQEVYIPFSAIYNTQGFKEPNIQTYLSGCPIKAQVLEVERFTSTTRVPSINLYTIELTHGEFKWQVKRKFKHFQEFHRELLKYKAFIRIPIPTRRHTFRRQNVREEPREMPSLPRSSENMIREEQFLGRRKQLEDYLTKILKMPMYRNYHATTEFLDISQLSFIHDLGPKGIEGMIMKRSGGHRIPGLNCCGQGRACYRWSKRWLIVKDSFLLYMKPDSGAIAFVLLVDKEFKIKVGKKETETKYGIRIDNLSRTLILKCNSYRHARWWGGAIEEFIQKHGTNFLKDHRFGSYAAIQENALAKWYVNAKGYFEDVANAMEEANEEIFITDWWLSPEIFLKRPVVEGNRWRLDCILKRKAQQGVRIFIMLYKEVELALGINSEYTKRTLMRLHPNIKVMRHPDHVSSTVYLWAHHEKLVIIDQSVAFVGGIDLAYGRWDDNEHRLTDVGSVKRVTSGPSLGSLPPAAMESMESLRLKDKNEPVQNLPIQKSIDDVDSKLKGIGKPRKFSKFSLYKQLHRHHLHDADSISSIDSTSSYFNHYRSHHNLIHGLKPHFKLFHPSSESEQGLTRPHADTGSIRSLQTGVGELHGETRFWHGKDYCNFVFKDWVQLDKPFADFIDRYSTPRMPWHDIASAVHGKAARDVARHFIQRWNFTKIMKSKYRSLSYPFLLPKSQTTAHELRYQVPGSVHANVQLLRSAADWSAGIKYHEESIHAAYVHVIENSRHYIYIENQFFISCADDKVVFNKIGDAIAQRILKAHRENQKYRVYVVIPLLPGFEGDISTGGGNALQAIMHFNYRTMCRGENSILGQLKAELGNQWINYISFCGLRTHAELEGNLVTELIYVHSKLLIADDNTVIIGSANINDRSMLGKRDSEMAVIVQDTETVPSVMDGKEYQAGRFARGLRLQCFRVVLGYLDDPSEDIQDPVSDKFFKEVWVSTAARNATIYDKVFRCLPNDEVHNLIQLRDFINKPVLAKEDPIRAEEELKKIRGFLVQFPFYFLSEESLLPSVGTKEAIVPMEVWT
Observation Type: pIC50
Please report pIC50 as the negative decimal logarithm of the molar concentration, giving only the number.

Lookup result for C[C@@H](CN1CCC2(CC1)C(=O)NCN2c1ccc(F)c(F)c1)NC(=O)c1ccc2ccccc2c1.O=C(O)C(F)(F)F [24a] ; measured pIC50: 5.55
